B1: P2RY14 (parent)
chain: KKIFKSHLKSSRNSTSVKKKSSRN

- Variants of: B1
- EXPERIMENT NOTES: protein stability index of a GFP-peptide fusion (GPS, HEK-293T) (PSI 1-6); higher = more stable;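 further: lentivirally expressed fusions sorted by FACS into six bins by GFP to DsRed ratio, PSI derived from sequencing read proportions per bin multiplied by bin number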
- SETUP CONDITIONS: c terminus: a fixed tail appended
Rule: protein stability index under 4 gives Condition not met, otherwise Condition met.

Example entries and their recorded answers appear below.
>  <SEQ TEXT>
KKIFKSHLVSSRNSTSVKKKSSRN [K9V]

>  <GROUP>
Condition not met

$$$$
>  <SEQ TEXT>
KKIFKSHNKSSRNSTSVKKKSSRN [L8N]

>  <GROUP>
Condition met

$$$$
>  <SEQ TEXT>
KKIFKSHLKSSRESTSVKKKSSRN [N13E]

>  <GROUP>
Condition not met

$$$$
>  <SEQ TEXT>
KKIFKWHLKSSRNSTSVKKKSSRN [S6W]

>  <GROUP>
Condition not met

$$$$
>  <SEQ TEXT>
KKIFKSHLKSSRNFTSVKKKSSRN [S14F]

>  <GROUP>
Condition not met

$$$$
>  <SEQ TEXT>
KKIFKSHLKSSANSTSVKKKSSRN [R12A]

>  <GROUP>
Condition met

$$$$

Query string: Determine whether measured protein stability index meets or exceeds 4 for KYIFKSHLKSSRNSTSVKKKSSRN [K2Y]
Result string: Condition not met

Query string: Determine whether measured protein stability index meets or exceeds 4 for KKIFKSHLKSSRNSTSVKKFSSRN [K20F]
Result string: Condition not met

Query string: Determine whether measured protein stability index meets or exceeds 4 for KKIFKSHLKSSRNSYSVKKKSSRN [T15Y]
Result string: Condition not met

Query string: Determine whether measured protein stability index meets or exceeds 4 for KKIFKSHQKSSRNSTSVKKKSSRN [L8Q]
Result string: Condition not met

Query string: Determine whether measured protein stability index meets or exceeds 4 for KKIFKSHLKSSRNSTSVKKKSSWN [R23W]
Result string: Condition not met

Query string: Determine whether measured protein stability index meets or exceeds 4 for KKIFKSHLKSSRNITSVKKKSSRN [S14I]
Result string: Condition met
